Recorded values, source the supplement of paper PMC9170038.

# Tested on: MS2 coat protein
# Assay Info: apparent KD of MS2 coat protein; designed switch direction (-1 OFF switch, 1 ON switch): 1; higher = weaker reporter binding
# Experimental Conditions: input ligand: none
Property Name: apparent KD of MS2 coat protein (nM)

AUAAACAGGCUAGGAUAUCCGGAAACUACAGGACACGACCCUGUGGACAUGAGGAUCACCCAUGUGGAGAAGGAGCCACAUGAA [Onvete] (Eterna round: R96, puzzle: Same State NG 2) ... 145
GGUGGCGAAAGCGACAUGAGGAUCACCCAUGUCAUCGGAGGGCAGGAUAUCCGGCGAAAGCCGAAGGAGAAGGGUCGAAAAGAA [ssng3v2 b] (Eterna round: R96, puzzle: Same State NG 3) ... 43.6
GCUAGAAUCAAAGCCAACAUGAGGAUCACCCAUGUAUGUUGGUAGGAUAUCGUUUGCUUUGCAAACGAGAAGGACCAAACUAGC [SameState NG3 #1] (Eterna round: R96, puzzle: Same State NG 3) ... 87.1
